Where these numbers come from: patent US20250034594A1

Test system: gene editing with dCas9
method_description: Screen of 322 new SSAP proteins, gene editing activity with dCas9 (Table 5)
Type: cell-based
settings: normalized
A collection of molecules and their measured dCas9 with SSAP activity (normalized)
Hey, just send me the number, nothing else.

molecule	dCas9 with SSAP activity (normalized)
SSAP_157: SEQ ID NO: 326; Pseudoflavonifractor sp. An184 (protein, listed as Pseudoflavonifractor sp.) ATEKAIQRATGRAPALENRPALQQYIKQMSGEIKKALPSVMTPERFTRIVLSALSTNPKLAETTPQSFLGAMMTAAQLGLEPNTPLGQAYLLPYWNSKANAYECQFQLGYKGLLDLAYRSGEISVIQAHVVYSEDQFSYSFGLKPELKHIPAGEERGEPVYVYAIFHTKDGGYGFEVCSIDDIRAHAQRYSKSFQNGPWQTNFEEMAKKTVLKRVLKYAPLKSEFLRGLAQDETIKQEISEDMYMVEAAYAEPDVSSAEND	−0.898

With those in mind, consider the next molecule.
Summary for this molecule, SSAP_171: SEQ ID NO: 340; Streptomyces indicus (protein, listed as Streptomyces indicus) STDARNAVARRAETVGQVEQQAQQQPTLAQQIERMKPEMERALPKHMSADRMARIALTLIRKNPDLATCNTQSFLGALMTCSQLGFEPGSPTQEAYIIPRKGNAEFQLGYQGMVTLFYQHPMASSIKVETVRENDYFEHEEGLEERLVHRPCATGPRGRAIAYYSVARLINGGRTFKVMYPDEIEERRQKLPSKNSPAWRDNYDEMAKKTVLRNHFKALPKSAQLARALAHDGTVRTDATADVIDVAPEYPQRPELEAGPTA : dCas9 with SSAP activity (normalized) is −0.827
